IC50 for assorted molecules
biological target: MLK3 (Homo sapiens (Human), UniProt Q16584); assay: Radiometric Filter Plate MLK3 Assay; format: biochemical; settings: 200 ng (130 nM) MLK3, 1 μM inactive MKK7b, 2 μM cold ATP (Km), 33P ATP, twenty minute incubation; read-out: MK3 IC50
Sequence (Q16584 whole entry): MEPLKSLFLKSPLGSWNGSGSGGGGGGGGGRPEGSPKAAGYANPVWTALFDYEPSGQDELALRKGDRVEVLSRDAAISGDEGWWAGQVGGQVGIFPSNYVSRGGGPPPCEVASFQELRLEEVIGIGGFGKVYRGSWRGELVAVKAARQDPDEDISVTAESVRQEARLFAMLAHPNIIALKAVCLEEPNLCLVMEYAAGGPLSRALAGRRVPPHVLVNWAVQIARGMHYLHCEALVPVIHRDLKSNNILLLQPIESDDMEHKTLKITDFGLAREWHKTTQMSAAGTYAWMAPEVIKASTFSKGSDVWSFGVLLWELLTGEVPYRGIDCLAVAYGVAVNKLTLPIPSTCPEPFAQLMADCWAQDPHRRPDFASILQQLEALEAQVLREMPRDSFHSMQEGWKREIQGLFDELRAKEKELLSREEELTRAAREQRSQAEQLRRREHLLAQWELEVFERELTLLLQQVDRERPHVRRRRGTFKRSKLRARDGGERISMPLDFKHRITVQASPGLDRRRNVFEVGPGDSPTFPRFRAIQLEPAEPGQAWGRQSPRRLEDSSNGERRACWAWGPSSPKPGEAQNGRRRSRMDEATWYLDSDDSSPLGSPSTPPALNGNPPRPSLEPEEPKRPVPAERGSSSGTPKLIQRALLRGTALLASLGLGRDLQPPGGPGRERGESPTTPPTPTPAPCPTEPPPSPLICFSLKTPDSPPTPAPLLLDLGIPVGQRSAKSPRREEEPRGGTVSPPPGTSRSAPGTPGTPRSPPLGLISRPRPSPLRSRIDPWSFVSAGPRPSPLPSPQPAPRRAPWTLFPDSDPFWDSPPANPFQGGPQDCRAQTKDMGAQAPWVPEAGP

COc1cc(-c2cnc3[nH]cc(-c4ccc(N)nc4)c3c2)cc(OC)c1OC = < 0.1 µM

Request: # IC50 lookup, item O=c1[nH]c2ncc(-c3ccc4cc[nH]c4c3)nc2n1-c1ccc2[nH]ccc2c1
Result: > 1 µM

Request: # IC50 lookup, item COc1cc(-c2cnc3c(c2)C(CC2CC2)C(=O)N3)cc(OC)c1OC (centres unmarked)
Result: 0.1 to 1 µM

Request: # IC50 lookup, item CN1CCN(c2cc(-c3cnc4[nH]cc(-c5ccc6[nH]ccc6c5)c4c3)ccn2)CC1
Result: < 0.1 µM

###

experiment: Pharmacokinetic Evaluation in Mice; format: in vivo; design: unit not given here; conditions: single intravenous (IV) injection at 10 mg/kg, CL57 BL/6 mice, brain homogenate
READOUT: AUC Brain

Here's what some known entries look like.
COc1cc(-c2cnc3[nH]cc(-c4ccc5[nH]ccc5c4)c3c2)cc(OC)c1OC = + (+ indicates ≧500)
Nc1ccc(-c2cnc3[nH]cc(-c4ccc5[nH]ccc5c4)c3c2)cn1 = − (− indicates <500)
Nc1ncc(-c2cnc3[nH]cc(-c4ccc5[nH]ccc5c4)c3c2)cn1 = + (+ indicates ≧500)
CN1CCN(Cc2ccc(-c3cnc4[nH]cc(-c5ccc6[nH]ccc6c5)c4c3)cc2)CC1 = + (+ indicates ≧500)

Request: # AUC Brain lookup, item COc1cc(-c2cnc3[nH]cc(-c4ccc(N)nc4)c3c2)cc(OC)c1OC
Result: − (− indicates <500)

Request: # AUC Brain lookup, item COc1cc(-c2cnc3[nH]cc(-c4cnc(N)nc4)c3c2)cc(OC)c1OC
Result: − (− indicates <500)

###

biological target: MLK3 (Homo sapiens (Human), UniProt Q16584); assay: Radiometric Filter Plate MLK3 Assay; assay type: biochemical; conditions: 200 ng (130 nM) MLK3, 1 μM inactive MKK7b, 2 μM cold ATP (Km), 33P ATP, twenty minute incubation; read-out: MK3 IC50
READOUT: IC50

Here's what some known entries look like.
COc1cc(-c2cnc3ncn(-c4ccc5[nH]ccc5c4)c3n2)cc(OC)c1OC [Example 126] = > 1000 nM
Cc1cc(C)cc(-c2cnc3[nH]c(=O)n(-c4ccc5c(ccn5C)c4)c3n2)c1 [Example 43] = > 1000 nM
COc1cc(-c2cnc3[nH]c(=S)n(CC4CC4)c3n2)cc(OC)c1OC [Example 127] = > 1000 nM
COc1cc(OC)c(-c2cnc3[nH]c(=O)n(C4CCCC4)c3n2)c(OC)c1 [Example 94] = > 1000 nM
COc1cc(-c2cnc3[nH]c(=O)n(-c4ccc5[nH]c(C)cc5c4)c3n2)cc(OC)c1OC [Example 72] = < 100 nM
Nc1ccc(-c2cnc3[nH]c(=O)n(C4CCCC4)c3n2)cn1 [Example 117] = > 1000 nM
COc1cc(-c2cnc3[nH]cc(-c4ccc5[nH]ccc5c4)c3c2)ccc1OCCN(C)C [Example 35] = > 1000 nM

Request: # IC50 lookup, item COc1cc(-c2cnc3[nH]cc(-c4ccc5[nH]ccc5c4)c3n2)ccc1OCCN1CCOCC1 [Example 39]
Result: < 100 nM

###

target: UniProt:Q16584; assay: Radiometric Filter Plate MLK3 Assay; format: biochemical; settings: 200 ng (130 nM) MLK3, 1 μM inactive MKK7b, 2 μM cold ATP (Km), 33P ATP, twenty minute incubation; read-out: MK3 IC50
READOUT: IC50

Here's what some known entries look like.
COc1cc(-c2cnc3[nH]c(=O)n(-c4ccc5[nH]ccc5c4)c3n2)ccc1OCCN1CCOCC1 [Example 57] = < 100 nM
COc1cc(OC)cc(-c2cnc3[nH]c(=O)n(-c4ccc5[nH]ccc5c4)c3n2)c1 [Example 65] = > 1000 nM
CC(=O)Nc1ccc(-c2cnc3[nH]cc(-c4ccc5[nH]ccc5c4)c3c2)cc1 [Example 3] = < 100 nM
COc1cc(-c2cnc3c(c2)/C(=C\c2ccncc2)C(=O)N3)cc(OC)c1OC [Example 129] = > 1000 nM
CNC(=O)c1ccc(-c2c[nH]c3ncc(-c4cc(OC)c(OC)c(OC)c4)cc23)cc1 [Example 164] = > 1000 nM
COc1cc(-c2cnc3[nH]c(=O)n(-c4ccc5[nH]ccc5c4)c3n2)ccc1N [Example 60] = < 100 nM
Cn1ccc2cc(-n3c(=O)[nH]c4ncc(-c5ccc(O)cc5)nc43)ccc21 [Example 42] = > 1000 nM
CC(=O)N1CCN(C(=O)c2ccc(-c3cnc4[nH]cc(-c5ccc6[nH]ccc6c5)c4c3)cc2)CC1 [Example 146] = < 100 nM

Request: Notebook: pull reported IC50 for UniProt:Q16584, entry COc1ccc(-c2cnc3[nH]cc(-c4ccc5[nH]ccc5c4)c3n2)cc1OC [Example 37]
Result: < 100 nM

Request: Notebook: pull reported IC50 for UniProt:Q16584, entry CC(C)(C)OC(=O)N1CCN(Cc2ccc(-c3cnc4[nH]cc(-c5ccc6[nH]ccc6c5)c4c3)cc2)CC1 [Example 144]
Result: < 100 nM

Request: Notebook: pull reported IC50 for UniProt:Q16584, entry COc1cc(-c2cnc3[nH]cc(-c4ccc(N(C)C)nc4)c3c2)cc(OC)c1OC [Example 19]
Result: < 100 nM

Request: Notebook: pull reported IC50 for UniProt:Q16584, entry O=c1[nH]c2ncc(-c3ccc(N4CCOCC4)cc3)nc2n1CC1CC1 [Example 86]
Result: > 1000 nM

Request: Notebook: pull reported IC50 for UniProt:Q16584, entry COc1cc(-c2cnc3[nH]c(=O)n(-c4ccc5[nH]ccc5c4)c3n2)ccc1O [Example 55]
Result: < 100 nM

Request: Notebook: pull reported IC50 for UniProt:Q16584, entry O=c1[nH]c2ncc(-c3cc(F)cc(F)c3)nc2n1-c1ccc2[nH]ccc2c1 [Example 61]
Result: > 1000 nM

Request: Notebook: pull reported IC50 for UniProt:Q16584, entry COc1cc(-c2cnc3[nH]cc(-c4ccc5[nH]ccc5c4)c3n2)ccc1N [Example 38]
Result: < 100 nM

Request: Notebook: pull reported IC50 for UniProt:Q16584, entry CN(C)c1ccc(-c2cnc3[nH]cc(-c4ccc(F)c(Cl)c4)c3c2)cn1 [Example 22]
Result: > 1000 nM

Request: Notebook: pull reported IC50 for UniProt:Q16584, entry COc1cc(-c2cnc3[nH]c(=O)n(C4Cc5ccccc5C4)c3n2)cc(OC)c1OC [Example 110]
Result: < 100 nM

###

target: MLK3 (Homo sapiens (Human)); experiment: Radiometric Filter Plate MLK3 Assay; format: biochemical; conditions: 200 ng (130 nM) MLK3, 1 μM inactive MKK7b, 2 μM cold ATP (Km), 33P ATP, twenty minute incubation; read-out: MK3 IC50
pIC50: −log10 of the molar value.
pIC50 for assorted compounds

Here's what some known entries look like.
CC(C)(C)OC(=O)N1CCN(C(=O)c2ccc(-c3cnc4[nH]cc(-c5ccc(C(N)=O)cc5)c4c3)cc2)CC1 [Example 148] = > 7.00
Cc1cc2cc(-n3c(=O)[nH]c4ncc(-c5cc(Cl)cc(Cl)c5)nc43)ccc2[nH]1 [Example 73] = < 6.00
COc1ccc(-c2cnc3[nH]c(=O)n(-c4ccc5[nH]ccc5c4)c3n2)cc1F [Example 49] = < 6.00

Let us move to another entry and its pIC50.
Request: Notebook: pull reported pIC50 for MLK3 (Homo sapiens (Human)), entry COc1cc(-c2cnc3[nH]c(=O)n(-c4ccc5[nH]ccc5c4)c3n2)cc(OC)c1O [Example 62]
Result: > 7.00
